# assay summary: Human HepG2 cell viability assay in 384 well format
# Assay type: toxicity, cell-based
# Set-up: dose 125 nL, time 70.5 hour; concentration not given beside the values
# condition parameters: HepG2 cells, read-out: Inhibition
A collection of compounds and their measured cytotoxicity at 70.5 h

# compound, units text, cytotoxicity at 70.5 h
records = [
    ("Fc1ccc(CN2CCCC3(COCCN(Cc4c[nH]nn4)C3)C2)cc1 (configuration not stated)", "%", -5.93),
    ("FC1(F)CCN(Cc2cccnc2)CC12CCN(c1cnccn1)C2 (configuration not stated)", "%", -12.8),
    ("C[C@@H]1CN(S(=O)(=O)c2ccc(F)cc2F)C[C@]1(C)O", "%", -1.56),
    ("O=C(NCc1cccnc1N1CCCC(O)C1)c1ccsc1 (configuration not stated)", "%", -20.7),
    ("Cc1cccc(CN2CCCC3(CCN(c4cccnc4)C3=O)C2)n1 (configuration not stated)", "%", -3.53),
    ("CCC(=O)NCc1ccc(N2CCCCC2)cc1", "%", -2.28),
    ("CCn1nc(C)cc1C(=O)OCC1CC(=O)N(Cc2ccccc2)C1 (configuration not stated)", "%", 0.617),
    ("Cc1cc(NC(=O)c2ccc(N3CCOCC3)cc2)[nH]n1", "%", -1.56),
    ("CCCOC(=O)NCCC1CN(c2cnn(C)c(=O)c2)CCO1 (configuration not stated)", "%", -10.5),
    ("COc1ccc(CN2CCc3c(nc(-c4ccccn4)[nH]c3=O)C2)cc1", "%", 13.1),
    ("COc1ncc(CN2CC[C@@](C)(O)[C@H](Oc3cccc(F)c3)C2)cn1", "%", 5.46),
    ("Cc1nc(C)n(CC2CCCCN2Cc2nnc(-c3ccco3)o2)n1 (configuration not stated)", "%", -6.54),
    ("COc1cccc(COc2nc(C(C)C)no2)c1", "%", 15.2),
    ("Cc1nc(CNC(=O)CC2C(=O)NCCN2Cc2ccccc2C)n[nH]1 (configuration not stated)", "%", -0.629),
    ("Cc1noc(C)c1CCNc1nccc(CCC(F)(F)F)n1", "%", -8.75),
    ("Cc1ccc(N(C)[C@@H]2CC[C@@H]3CN(C(=O)Cc4cccs4)C[C@@H]32)nn1", "%", -5.34),
    ("O=c1c2cc3c(cc2nnn1Cc1ccccc1Cl)OCCO3", "%", 12.4),
    ("CNc1ncc(C(=O)N2CCOC(C(=O)N3CCCCCC3)C2)cn1 (configuration not stated)", "%", -2.75),
    ("O=C(Nc1ccccc1)N1CCc2nc(C(=O)N3CCCC3)sc2CC1", "%", -2.49),
    ("Cc1nc(CC(=O)N2CCC3(CC2)CC(=O)N(CC2CCCO2)C3)cs1 (configuration not stated)", "%", -3.04),
    ("O=C(CCNCc1cc(O)c2cc(F)ccc2n1)N1CCCC1", "%", -8.32),
    ("CC(C)c1noc(CCC(=O)NC(C)c2nnc3n2CCCCC3)n1 (configuration not stated)", "%", -6.86),
    ("CCCc1ccc(CN2CCN(C(=O)N(C)C)[C@@H]3CS(=O)(=O)C[C@@H]32)o1", "%", -10.7),
    ("NC(=O)c1ccc(OCC(=O)N2CCCC(n3cccn3)C2)cc1 (configuration not stated)", "%", -12),
    ("O=C(NCCc1ccccc1)N1CC[C@@H]2CNS(=O)(=O)[C@@H]2CC1", "%", 0.679),
    ("Cc1nsc(NCc2ccc(S(=O)(=O)N(C)C(C)C)cc2)n1", "%", 16.6),
    ("FC(F)(F)c1cccc(OC2CCN(Cc3c[nH]cn3)CC2)c1", "%", 45.6),
    ("O=C(Cc1ccc(Cl)s1)Nc1ccc2c(c1)C(=O)NC2=O", "%", -1.77),
    ("CC1(NC(=O)Cc2cccs2)CCS(=O)(=O)C1 (configuration not stated)", "%", -85.8),
    ("CC(C)c1nc(CNCC2CCCN2c2cccnn2)cs1 (configuration not stated)", "%", -8.04),
    ("Cc1nc(C)n(CC2CCCN2CC(=O)NC2CCOCC2)n1 (configuration not stated)", "%", 2.61),
    ("CC(C)(O)c1cc(CC2(NCC3CCCCC3)COC2)no1", "%", -16.3),
    ("COc1cccc2c1OCC(CNC(=O)Cc1c(C)nc(N)nc1C)C2 (configuration not stated)", "%", -7.12),
    ("Cc1cc(C(=O)N2CCn3cc(CN4CCCCC4)nc3C2)no1", "%", -9.93),
    ("Cc1nc(CCNC(=O)CC2CCN(C(C)C)CC2)sc1Cl", "%", 45.7),
    ("COc1ccc(CNCC2CN(C3CC3)CCO2)cc1C (configuration not stated)", "%", -4.72),
    ("COc1cccc(CNc2nc(C)cc(C)n2)c1OC", "%", -2.87),
    ("COC(=O)COn1c(SC(C)C)nc2ccccc2c1=O", "%", -3.63),
    ("COc1ccc(CNC[C@H]2COCc3nc4cccnc4n32)cn1", "%", -6.49),
    ("CCNC(=O)C(C)NC(=O)Nc1ccccc1SC(F)(F)F (configuration not stated)", "%", -10.8),
    ("CC(C(=O)NC1CC1)N1CCN(Cc2ccn(C)c(=O)c2)CC1 (configuration not stated)", "%", 0.0611),
    ("Cc1nccc(N2CCC(=O)N(Cc3ccc(F)cc3)C(C(C)C)C2)n1 (configuration not stated)", "%", -2.7),
    ("Nc1nc(N)c2c(n1)OC1(CCN(C(=O)CC3CCCNC3)CC1)C2 (configuration not stated)", "%", 1.11),
    ("COCCC(=O)NCC1COc2cc(OC)ccc2C1 (configuration not stated)", "%", -12.7),
    ("CSC(C)(C)CNC(=O)NCCC1CCN(C)CC1", "%", -3.38),
    ("CCN1CCC2(CN(C(=O)N(C)C)CC23CCNCC3)C1=O (configuration not stated)", "%", -8.8),
    ("CCn1ncc2[nH]c(-c3cc4c(cc3OC)OCO4)nc21", "%", -4.87),
]
